The reader will find reported IC50 values listed item by item below.
biological target: Maltase-glucoamylase (Homo sapiens); experiment: Inhibition of alpha-glucosidase (unknown origin)

>  <Molecule>
COc1ccc(C(c2c(O)c3cc(Cl)ccc3oc2=O)c2c(O)c3cc(Cl)ccc3oc2=O)cc1OC

>  <Unit Label>
µM

>  <IC50>
91.4

$$$$
>  <Molecule>
COc1cc(C(c2c(O)c3cc(Cl)ccc3oc2=O)c2c(O)c3cc(Cl)ccc3oc2=O)cc(OC)c1OC

>  <Unit Label>
µM

>  <IC50>
128

$$$$
>  <Molecule>
COc1ccc(C(c2c(O)c3cc(C)ccc3oc2=O)c2c(O)c3cc(C)ccc3oc2=O)cc1 [acs.jmedchem.1c00409_ST.500]

>  <Unit Label>
µM

>  <IC50>
107

$$$$
>  <Molecule>
O=c1oc2ccc(Cl)cc2c(O)c1C(c1ccc(Cl)cc1Cl)c1c(O)c2cc(Cl)ccc2oc1=O

>  <Unit Label>
µM

>  <IC50>
16.5

$$$$

###

target: Alpha-glucosidase (Saccharomyces cerevisiae); assay: Inhibition of Saccharomyces cerevisiae alpha-glucosidase using pNPG as substrate incubated for 30 mins by microplate reader analysis

>  <Compound>
COc1cc2cc(Oc3ccc4ccc(=O)oc4c3)c(=O)oc2cc1O

>  <Target Or Test System>
Alpha-glucosidase (Saccharomyces cerevisiae)

>  <Unit Label>
nM

>  <IC50>
86

$$$$
>  <Compound>
O=c1ccc2ccc(Oc3cc4cc(O)c(O)cc4oc3=O)cc2o1 [6,7-dihydroxy-3,7'-dicoumaryl ether]

>  <Target Or Test System>
Alpha-glucosidase (Saccharomyces cerevisiae)

>  <Unit Label>
nM

>  <IC50>
50

$$$$
>  <Compound>
COc1cc2c(O)c(Oc3cc(O[C@@H]4O[C@H](CO)[C@@H](O)[C@H](O)[C@H]4O[C@@H]4O[C@H](CO)[C@@H](O)[C@H](O)[C@H]4O)c4ccc(=O)oc4c3)c(=O)oc2cc1O

>  <Target Or Test System>
Alpha-glucosidase (Saccharomyces cerevisiae)

>  <Unit Label>
nM

>  <IC50>
231

$$$$

###

molecular target: Maltase-glucoamylase (Homo sapiens, UniProt O43451)
Sequence (O43451 whole entry): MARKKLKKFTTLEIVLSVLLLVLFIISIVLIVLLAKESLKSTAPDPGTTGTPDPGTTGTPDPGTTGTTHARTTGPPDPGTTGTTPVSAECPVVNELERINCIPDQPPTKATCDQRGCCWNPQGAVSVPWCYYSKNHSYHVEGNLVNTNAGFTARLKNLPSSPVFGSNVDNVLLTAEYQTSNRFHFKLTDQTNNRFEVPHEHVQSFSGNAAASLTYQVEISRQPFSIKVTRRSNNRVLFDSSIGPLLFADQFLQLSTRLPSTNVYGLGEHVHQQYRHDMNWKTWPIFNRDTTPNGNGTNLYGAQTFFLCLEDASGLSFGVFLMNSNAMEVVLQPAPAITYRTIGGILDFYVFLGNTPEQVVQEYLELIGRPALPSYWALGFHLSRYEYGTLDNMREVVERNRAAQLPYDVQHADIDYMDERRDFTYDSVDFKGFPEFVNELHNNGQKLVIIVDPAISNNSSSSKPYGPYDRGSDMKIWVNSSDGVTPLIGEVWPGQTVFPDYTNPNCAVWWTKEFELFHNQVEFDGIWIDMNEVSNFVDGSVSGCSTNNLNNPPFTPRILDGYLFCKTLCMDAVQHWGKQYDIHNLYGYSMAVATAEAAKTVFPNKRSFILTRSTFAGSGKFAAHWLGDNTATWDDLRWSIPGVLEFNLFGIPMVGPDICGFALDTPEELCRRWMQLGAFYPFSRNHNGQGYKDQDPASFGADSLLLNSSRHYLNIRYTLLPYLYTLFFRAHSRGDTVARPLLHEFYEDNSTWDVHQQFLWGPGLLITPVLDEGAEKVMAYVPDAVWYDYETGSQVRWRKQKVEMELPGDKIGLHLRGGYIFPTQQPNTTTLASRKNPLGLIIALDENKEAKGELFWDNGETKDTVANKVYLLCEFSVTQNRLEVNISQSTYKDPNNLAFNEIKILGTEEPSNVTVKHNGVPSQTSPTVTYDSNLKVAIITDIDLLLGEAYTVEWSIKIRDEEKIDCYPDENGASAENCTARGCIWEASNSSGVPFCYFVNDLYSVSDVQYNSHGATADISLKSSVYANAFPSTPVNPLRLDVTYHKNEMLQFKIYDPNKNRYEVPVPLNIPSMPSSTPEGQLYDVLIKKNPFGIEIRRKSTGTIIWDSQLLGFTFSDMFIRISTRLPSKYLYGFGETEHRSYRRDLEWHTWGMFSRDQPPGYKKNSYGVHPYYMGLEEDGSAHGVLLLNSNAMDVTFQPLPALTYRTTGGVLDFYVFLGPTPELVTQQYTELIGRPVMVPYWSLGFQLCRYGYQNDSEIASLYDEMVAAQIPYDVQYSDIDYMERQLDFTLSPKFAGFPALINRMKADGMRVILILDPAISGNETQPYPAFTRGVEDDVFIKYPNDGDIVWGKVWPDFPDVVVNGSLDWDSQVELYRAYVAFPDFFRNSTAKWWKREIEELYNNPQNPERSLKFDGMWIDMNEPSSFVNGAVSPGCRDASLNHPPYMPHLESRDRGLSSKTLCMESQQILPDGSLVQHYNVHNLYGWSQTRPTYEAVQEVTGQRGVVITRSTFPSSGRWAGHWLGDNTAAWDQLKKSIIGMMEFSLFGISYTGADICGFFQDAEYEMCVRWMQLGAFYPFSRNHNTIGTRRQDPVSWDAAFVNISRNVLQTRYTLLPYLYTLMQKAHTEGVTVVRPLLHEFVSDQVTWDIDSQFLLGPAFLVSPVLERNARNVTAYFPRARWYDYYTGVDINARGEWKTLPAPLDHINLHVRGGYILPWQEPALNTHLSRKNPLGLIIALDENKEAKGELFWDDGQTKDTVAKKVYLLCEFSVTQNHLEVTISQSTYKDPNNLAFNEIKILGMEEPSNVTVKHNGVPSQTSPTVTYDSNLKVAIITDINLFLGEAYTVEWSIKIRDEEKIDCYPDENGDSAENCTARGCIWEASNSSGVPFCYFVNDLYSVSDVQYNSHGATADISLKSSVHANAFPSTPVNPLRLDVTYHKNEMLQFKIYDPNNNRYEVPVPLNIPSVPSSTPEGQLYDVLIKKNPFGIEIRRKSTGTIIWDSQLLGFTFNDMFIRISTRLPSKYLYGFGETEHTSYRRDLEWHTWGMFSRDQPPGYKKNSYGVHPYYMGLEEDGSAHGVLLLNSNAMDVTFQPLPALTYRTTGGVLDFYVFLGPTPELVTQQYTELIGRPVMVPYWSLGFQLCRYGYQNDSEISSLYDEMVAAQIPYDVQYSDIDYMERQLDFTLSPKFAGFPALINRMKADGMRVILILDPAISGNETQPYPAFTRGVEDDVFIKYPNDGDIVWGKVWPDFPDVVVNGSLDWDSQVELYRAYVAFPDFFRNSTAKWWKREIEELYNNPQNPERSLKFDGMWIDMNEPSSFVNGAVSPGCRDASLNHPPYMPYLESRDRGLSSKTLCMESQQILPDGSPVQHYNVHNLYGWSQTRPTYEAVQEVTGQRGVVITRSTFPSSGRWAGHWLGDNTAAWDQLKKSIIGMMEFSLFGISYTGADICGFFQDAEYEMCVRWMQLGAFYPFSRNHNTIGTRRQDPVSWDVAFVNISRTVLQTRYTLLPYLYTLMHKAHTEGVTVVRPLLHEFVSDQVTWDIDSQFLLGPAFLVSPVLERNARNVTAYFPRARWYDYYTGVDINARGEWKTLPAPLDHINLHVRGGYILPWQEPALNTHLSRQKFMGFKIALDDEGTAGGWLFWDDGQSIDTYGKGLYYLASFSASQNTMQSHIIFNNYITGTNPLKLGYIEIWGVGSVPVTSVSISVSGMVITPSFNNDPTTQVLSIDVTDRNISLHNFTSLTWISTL

>  <Molecule Smiles>
O=c1oc2ccc(Cl)cc2c(O)c1C(c1cccc(O)c1)c1c(O)c2cc(Cl)ccc2oc1=O

>  <IC50, µM>
84.1

$$$$
>  <Molecule Smiles>
COc1cc(C(c2c(O)c3cc(Cl)ccc3oc2=O)c2c(O)c3cc(Cl)ccc3oc2=O)ccc1O

>  <IC50, µM>
83.6

$$$$
>  <Molecule Smiles>
CCOc1cc(C(c2c(O)c3cc(C)ccc3oc2=O)c2c(O)c3cc(C)ccc3oc2=O)ccc1O

>  <IC50, µM>
221

$$$$
>  <Molecule Smiles>
CCOc1cc(C(c2c(O)c3cc(Cl)ccc3oc2=O)c2c(O)c3cc(Cl)ccc3oc2=O)ccc1O

>  <IC50, µM>
57.1

$$$$
>  <Molecule Smiles>
COc1ccc(C(c2c(O)c3cc(Cl)ccc3oc2=O)c2c(O)c3cc(Cl)ccc3oc2=O)cc1O

>  <IC50, µM>
113

$$$$
>  <Molecule Smiles>
COc1cc(C(c2c(O)c3cc(C)ccc3oc2=O)c2c(O)c3cc(C)ccc3oc2=O)cc(OC)c1OC

>  <IC50, µM>
386

$$$$
>  <Molecule Smiles>
O=c1oc2ccc(Cl)cc2c(O)c1C(c1cccc([N+](=O)[O-])c1)c1c(O)c2cc(Cl)ccc2oc1=O

>  <IC50, µM>
27.1

$$$$
